Biological target: KCNQ 2/3 channels (HEK293 cells stably expressing human KCNQ2 and KCNQ3 subunits) (Homo sapiens, UniProt O43525+O43526)
Test: KCNQ2/3 channel activation, thallium flux FLIPR assay with BTC-AM dye
Details: HEK293 cells expressing human KCNQ2 and KCNQ3; thallium flux, FLIPR
property-measured: EC50

Prompt: Would you kindly share the measured EC50 for O=C(C[C@@H]1C[C@@H]2CC[C@H]1C2)Nn1nc(-c2ccc(F)cc2)c2ccccc2c1=O [Example 129] ?
Completion: < 0.1 µM

Prompt: Quick one: O=C(C[C@H]1C[C@@H]2CC[C@H]1C2)Nn1nc(-c2ccc(C(F)(F)F)cc2)c2ccccc2c1=O (racemic) [Example 150]
Completion: < 0.1 µM

Prompt: Same read-out for O=C(CC1(C(F)(F)F)CCCC1)Nn1nc(Cc2ccccc2)c2ccccc2c1=O [Example 139] ?
Completion: > 10 µM

Prompt: What do we get for O=C(Cc1ccc(Cl)c(F)c1)Nn1nc(C(F)(F)F)c2ccccc2c1=O [Example 59] ?
Completion: 1 to 10 µM

Prompt: Another compound to look at: O=C(Cc1ccsc1)Nn1nc(C(F)(F)F)c2ccccc2c1=O [Example 53]
Completion: 1 to 10 µM

Prompt: Same thing, different compound: O=C(Cc1cc(F)cc(F)c1)Nn1nc(-c2ccccc2)c2sccc2c1=O [Example 10]
Completion: 1 to 10 µM

Prompt: Please do the same for O=C(Cc1ccc(F)cc1)Nn1nc(-c2ccccc2)c2ccccc2c1=O [Example 26] as well.
Completion: 0.1 to 0.5 µM

Prompt: Ok, now COc1ccc(-c2nn(NC(=O)Cc3cc(F)cc(F)c3)c(=O)c3ccc(Br)cc23)cc1 [Example 176]
Completion: 0.1 to 0.5 µM

Prompt: # repeat for O=C(CC1CC2CCC1C2)Nn1nc(C2CCCC2)c2ccccc2c1=O (racemic) [Example 71]
Completion: < 0.1 µM

Prompt: What do you get for O=C(Cc1cc(F)cc(F)c1)Nn1nc(C2CC2)c2ccccc2c1=O [Example 23] ?
Completion: 0.5 to 1 µM

Prompt: Also O=C(CCc1ccccc1)Nn1nc(C(F)(F)F)c2ccccc2c1=O [Example 50] , if possible.
Completion: > 10 µM

Prompt: Now the same for CC(C)c1nn(NC(=O)CC23CC4CC(CC(O)(C4)C2)C3)c(=O)c2ccccc12 [Example 61]
Completion: > 10 µM

Prompt: Similarly, O=C(Cc1cc(F)ccc1F)Nn1nc(-c2ccccc2)c2ccccc2c1=O [Example 27] ?
Completion: 0.5 to 1 µM

Prompt: Cool, now O=C(C[C@H]1C[C@@H]2CC[C@H]1C2)Nn1nc(Cc2ccccc2)c2ccccc2c1=O (racemic) [Example 141]
Completion: < 0.1 µM

Prompt: Also, O=C(CC12CC3CC(CC(C3)C1)C2)Nn1nc(-c2ccc(Cl)cc2)c2c(F)ccc(F)c2c1=O [Example 183] please.
Completion: 0.1 to 0.5 µM

Prompt: Also Cc1ccc(-c2nn(NC(=O)Cc3cc(F)cc(F)c3)c(=O)c3ccccc23)cc1C [Example 166] ?
Completion: 0.1 to 0.5 µM

Prompt: // repeat for O=C(Cc1ccc(Cl)cc1)Nn1nc(-c2cccc(Cl)c2)c2ccccc2c1=O [Example 127] and report
Completion: 0.1 to 0.5 µM
